The origin of these recorded values is ChEMBL document CHEMBL3421585.

Test system: A549
experiment notes: Cytotoxicity against human A549 cells assessed as cell viability after 4 hrs
Format: cell-based
condition description: a549, 4 h

smiles: CC(C)Cn1nc(C#N)c2cc(Oc3ccc(NC(=O)[C@@H]4CCCN4)cc3)ccc21
Activity: Toxic

smiles: CC(C)Cn1cc(C#N)c2cc(Oc3ccc(NC(=O)[C@@H]4CCCN4)cc3)ccc21
Activity: Toxic

smiles: N#Cc1c(N)n(Cc2ccccc2)c2ccc(Oc3ccc(NC(=O)CN)cc3)cc12
Activity: Toxic

smiles: CC(C)Cn1cc(C#N)c2cc(N(C)c3ccc(NC(=O)[C@@H]4CCCN4)cc3)ccc21
Activity: Toxic

smiles: CC(C)Cn1cc(C#N)c2cc(Sc3ccc(NC(=O)[C@@H]4CCCN4)cc3)ccc21
Activity: Toxic

====

study target: 6-phosphofructo-2-kinase/fructose-2,6-bisphosphatase 3 (Homo sapiens)
experiment notes: Inhibition of PFKFB3 in human A549 cells assessed as reduction of fructose-1,6-bisphosphate formation after 4 hrs by MS/MS analysis
Format: cell-based
Catalogue of IC50 readings, one per entry.
measured parameter: IC50 (µM)

smiles: CCn1cc(C#N)c2cc(Oc3ccc(NC(=O)[C@@H]4CCCN4)cc3)ccc21
measured parameter: IC50
unit tag: µM
value qualifier: =
value measured: 3.05
//
smiles: N#Cc1c(N)[nH]c2ccc(Oc3ccc(NC(=O)[C@@H](N)CO)cc3)cc12
measured parameter: IC50
unit tag: µM
value qualifier: >
value measured: 30
//
smiles: CN(C)C(=O)Cn1c(N)c(C#N)c2cc(Oc3ccc(NC(=O)CN)cc3)ccc21
measured parameter: IC50
unit tag: µM
value qualifier: >
value measured: 30
//
smiles: CC(C)Cn1c(N)c(C#N)c2cc(Oc3ccc(NC(=O)CN)cc3)ccc21
measured parameter: IC50
unit tag: µM
value qualifier: >
value measured: 30
//
smiles: CN1Cc2cc(-n3cc(C#N)c4cc(Oc5ccc(NC(=O)[C@@H]6CCCN6)cc5)ccc43)ccc2C1=O
measured parameter: IC50
unit tag: µM
value qualifier: =
value measured: 0.14
//
smiles: N#Cc1cn(CC2CCOCC2)c2ccc(Oc3ccc(NC(=O)[C@@H]4CCCN4)cc3)cc12
measured parameter: IC50
unit tag: µM
value qualifier: =
value measured: 0.633
//
smiles: CC(C)Cn1cc(C#N)c2cc(Oc3ccc(NC(=O)[C@@H]4CCCN4)cc3)ccc21
measured parameter: IC50
unit tag: µM
value qualifier: =
value measured: 0.343
//
smiles: CC(C)Cn1cc(C#N)c2cc(S(=O)(=O)c3ccc(NC(=O)[C@@H]4CCCN4)cc3)ccc21
measured parameter: IC50
unit tag: µM
value qualifier: >
value measured: 30
//
smiles: Cc1noc(C)c1Cn1cc(C#N)c2cc(Oc3ccc(NC(=O)[C@@H]4CCCN4)cc3)ccc21
measured parameter: IC50
unit tag: µM
value qualifier: =
value measured: 0.281
//
smiles: Cn1cc(-c2c[nH]c3ccc(Oc4ccc(NC(=O)[C@@H]5CCCN5)cc4)cc23)cn1
measured parameter: IC50
unit tag: µM
value qualifier: >
value measured: 30
//
smiles: CN(C)CCn1cc(C#N)c2cc(Oc3ccc(NC(=O)[C@@H]4CCCN4)cc3)ccc21
measured parameter: IC50
unit tag: µM
value qualifier: =
value measured: 7.48
//
smiles: CCn1c(N)c(C#N)c2cc(Oc3ccc(NC(=O)CN)cc3)ccc21
measured parameter: IC50
unit tag: µM
value qualifier: >
value measured: 30
//
smiles: CC(C)Cn1cc(C#N)c2cc(N(C)c3ccc(NC(=O)[C@@H]4CCCN4)cc3)ccc21
measured parameter: IC50
unit tag: µM
value qualifier: >
value measured: 30
//
smiles: CC(C)Cn1cc(C#N)c2cc(Cc3ccc(NC(=O)[C@@H]4CCCN4)cc3)ccc21
measured parameter: IC50
unit tag: µM
value qualifier: >
value measured: 30

====

study target: 6-phosphofructo-2-kinase/fructose-2,6-bisphosphatase 3 (Homo sapiens, UniProt Q16875)
Sequence (Q16875 whole entry): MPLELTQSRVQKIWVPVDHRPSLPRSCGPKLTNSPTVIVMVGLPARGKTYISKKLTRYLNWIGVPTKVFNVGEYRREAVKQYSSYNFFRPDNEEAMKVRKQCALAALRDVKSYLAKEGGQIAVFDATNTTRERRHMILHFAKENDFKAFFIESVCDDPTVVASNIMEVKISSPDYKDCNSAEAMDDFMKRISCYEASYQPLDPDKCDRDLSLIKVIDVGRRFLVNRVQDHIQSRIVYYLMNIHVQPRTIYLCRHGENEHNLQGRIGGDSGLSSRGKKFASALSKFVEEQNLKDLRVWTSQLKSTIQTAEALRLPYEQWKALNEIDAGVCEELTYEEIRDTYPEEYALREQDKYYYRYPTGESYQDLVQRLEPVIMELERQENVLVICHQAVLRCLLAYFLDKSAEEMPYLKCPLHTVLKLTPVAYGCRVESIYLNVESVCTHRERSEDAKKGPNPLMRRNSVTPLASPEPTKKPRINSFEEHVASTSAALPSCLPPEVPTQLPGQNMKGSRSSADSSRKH
experiment notes: Inhibition of PFKFB3 in human A549 cells assessed as decrease in lactate secretion after 4 hrs
Type: cell-based
measured parameter: IC50 (µM)

smiles: CCn1cc(C#N)c2cc(Oc3ccc(NC(=O)CN)cc3)ccc21
measured parameter: IC50
unit tag: µM
value qualifier: >
value measured: 30
//
smiles: Cn1cc(-c2cn(C)c3ccc(Oc4ccc(NC(=O)[C@@H]5CCCN5)cc4)cc23)cn1
measured parameter: IC50
unit tag: µM
value qualifier: =
value measured: 9.71
//
smiles: Cn1c(N)c(C#N)c2cc(Oc3ccc(NC(=O)CN)cc3)ccc21
measured parameter: IC50
unit tag: µM
value qualifier: >
value measured: 30
//
smiles: CC(C)Cn1cc(C#N)c2cc(Cc3ccc(NC(=O)[C@@H]4CCCN4)cc3)ccc21
measured parameter: IC50
unit tag: µM
value qualifier: >
value measured: 30
//
smiles: N#Cc1c(N)[nH]c2ccc(Oc3ccc(NC(=O)[C@@H](N)CO)cc3)cc12
measured parameter: IC50
unit tag: µM
value qualifier: >
value measured: 30
//
smiles: N#Cc1cn(Cc2ccccc2)c2ccc(Oc3ccc(NC(=O)[C@@H]4CCCN4)cc3)cc12
measured parameter: IC50
unit tag: µM
value qualifier: =
value measured: 6.95
//
smiles: Cc1noc(C)c1Cn1cc(C#N)c2cc(Oc3ccc(NC(=O)[C@@H]4CCCN4)cc3)ccc21
measured parameter: IC50
unit tag: µM
value qualifier: >
value measured: 30
//
smiles: CC(C)Cn1c(N)c(C#N)c2cc(Oc3ccc(NC(=O)CN)cc3)ccc21
measured parameter: IC50
unit tag: µM
value qualifier: =
value measured: 16.4
//
smiles: CN1Cc2cc(-n3cc(C#N)c4cc(Oc5ccc(NC(=O)[C@@H]6CCCN6)cc5)ccc43)ccc2C1=O
measured parameter: IC50
unit tag: µM
value qualifier: =
value measured: 2.18

====

study target: 6-phosphofructo-2-kinase/fructose-2,6-bisphosphatase 2 (Homo sapiens)
Sequence (O60825 whole entry): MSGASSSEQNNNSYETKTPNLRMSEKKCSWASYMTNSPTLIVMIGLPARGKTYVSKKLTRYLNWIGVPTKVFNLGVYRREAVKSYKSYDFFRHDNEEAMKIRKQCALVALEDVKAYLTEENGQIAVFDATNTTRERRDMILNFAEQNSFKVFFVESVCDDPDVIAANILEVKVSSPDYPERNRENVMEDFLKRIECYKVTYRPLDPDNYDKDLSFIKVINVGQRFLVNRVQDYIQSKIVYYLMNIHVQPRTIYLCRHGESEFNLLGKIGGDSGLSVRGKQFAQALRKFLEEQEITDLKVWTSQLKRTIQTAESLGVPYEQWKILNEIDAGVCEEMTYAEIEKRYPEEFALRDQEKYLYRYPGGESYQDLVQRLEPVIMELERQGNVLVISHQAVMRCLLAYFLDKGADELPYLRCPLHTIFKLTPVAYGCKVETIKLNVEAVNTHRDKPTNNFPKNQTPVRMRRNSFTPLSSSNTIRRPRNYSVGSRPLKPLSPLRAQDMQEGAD
experiment notes: Inhibition of recombinant human PFKFB2 using fructose 6 phosphate as substrate assessed as ADP generation after 1 hr by ADP Glo assay
measured parameter: log10 IC50 (log10 of the value in µM)

smiles: Cn1c(N)c(C#N)c2cc(Oc3ccc(NC(=O)CN)cc3)ccc21
study target: 6-phosphofructo-2-kinase/fructose-2,6-bisphosphatase 2 (Homo sapiens)
measured parameter: log10 IC50
value measured: 1.32
--
smiles: CCn1cc(C#N)c2cc(Oc3ccc(NC(=O)[C@@H]4CCCCN4)cc3)ccc21
study target: 6-phosphofructo-2-kinase/fructose-2,6-bisphosphatase 2 (Homo sapiens)
measured parameter: log10 IC50
value measured: 1.34
--
smiles: Cc1noc(C)c1Cn1nc(C#N)c2cc(Oc3ccc(NC(=O)[C@@H]4CCCN4)cc3)ccc21
study target: 6-phosphofructo-2-kinase/fructose-2,6-bisphosphatase 2 (Homo sapiens)
measured parameter: log10 IC50
value measured: -1.60
--
smiles: CCn1cc(C#N)c2cc(Oc3ccc(N(C)C(=O)[C@@H]4CCCN4)cc3)ccc21
study target: 6-phosphofructo-2-kinase/fructose-2,6-bisphosphatase 2 (Homo sapiens)
measured parameter: log10 IC50
value measured: 1.88
--
smiles: CC(C)Cn1nc(C#N)c2cc(Oc3ccc(NC(=O)[C@@H]4CCCN4)cc3)ccc21
study target: 6-phosphofructo-2-kinase/fructose-2,6-bisphosphatase 2 (Homo sapiens)
measured parameter: log10 IC50
value measured: -1.82
--
smiles: Cn1cc(-c2cn(C)c3ccc(Oc4ccc(NC(=O)[C@@H]5CCCN5)cc4)cc23)cn1
study target: 6-phosphofructo-2-kinase/fructose-2,6-bisphosphatase 2 (Homo sapiens)
measured parameter: log10 IC50
value measured: -0.09
--
smiles: CNC(=O)Cn1cc(C#N)c2cc(Oc3ccc(NC(=O)[C@@H]4CCCN4)cc3)ccc21
study target: 6-phosphofructo-2-kinase/fructose-2,6-bisphosphatase 2 (Homo sapiens)
measured parameter: log10 IC50
value measured: 0.37
--
smiles: CC(C)Cn1cc(C#N)c2cc(Nc3ccc(NC(=O)[C@@H]4CCCN4)cc3)ccc21
study target: 6-phosphofructo-2-kinase/fructose-2,6-bisphosphatase 2 (Homo sapiens)
measured parameter: log10 IC50
value measured: 0.79
--
smiles: CC(C)Cn1cc(C#N)c2cc(Oc3ccc(NC(=O)[C@@H]4CCCN4)cc3)ccc21
study target: 6-phosphofructo-2-kinase/fructose-2,6-bisphosphatase 2 (Homo sapiens)
measured parameter: log10 IC50
value measured: -0.42
--
smiles: N#Cc1c(N)[nH]c2ccc(Oc3ccc(NC(=O)CN)cc3)cc12
study target: 6-phosphofructo-2-kinase/fructose-2,6-bisphosphatase 2 (Homo sapiens)
measured parameter: log10 IC50
value measured: 1.73
--
smiles: CN1Cc2cc(-n3cc(C#N)c4cc(Oc5ccc(NC(=O)[C@@H]6CCCN6)cc5)ccc43)ccc2C1=O
study target: 6-phosphofructo-2-kinase/fructose-2,6-bisphosphatase 2 (Homo sapiens)
measured parameter: log10 IC50
value measured: -0.97
--
smiles: Cc1noc(C)c1Cn1cc(C#N)c2cc(Oc3ccc(NC(=O)[C@@H]4CCCN4)cc3)ccc21
study target: 6-phosphofructo-2-kinase/fructose-2,6-bisphosphatase 2 (Homo sapiens)
measured parameter: log10 IC50
value measured: -0.80
--
smiles: CN(C)C(=O)Cn1c(N)c(C#N)c2cc(Oc3ccc(NC(=O)CN)cc3)ccc21
study target: 6-phosphofructo-2-kinase/fructose-2,6-bisphosphatase 2 (Homo sapiens)
measured parameter: log10 IC50
value measured: 0.84
--
smiles: N#Cc1c(N)[nH]c2ccc(Oc3ccc(NC(=O)[C@@H](N)CO)cc3)cc12
study target: 6-phosphofructo-2-kinase/fructose-2,6-bisphosphatase 2 (Homo sapiens)
measured parameter: log10 IC50
value measured: 1.43
--
smiles: CC(C)Cn1cc(C#N)c2cc(Sc3ccc(NC(=O)[C@@H]4CCCN4)cc3)ccc21
study target: 6-phosphofructo-2-kinase/fructose-2,6-bisphosphatase 2 (Homo sapiens)
measured parameter: log10 IC50
value measured: -0.72
--
smiles: CC(C)Cn1cc(C#N)c2cc(N(C)c3ccc(NC(=O)[C@@H]4CCCN4)cc3)ccc21
study target: 6-phosphofructo-2-kinase/fructose-2,6-bisphosphatase 2 (Homo sapiens)
measured parameter: log10 IC50
value measured: -0.85
--
smiles: CCn1cc(C#N)c2cc(Oc3ccc(NC(=O)CN)cc3)ccc21
study target: 6-phosphofructo-2-kinase/fructose-2,6-bisphosphatase 2 (Homo sapiens)
measured parameter: log10 IC50
value measured: 1.36
